- Test system: Pseudomonas aeruginosa
- PROTOCOL NOTES: Antibacterial activity against multidrug-resistant Pseudomonas aeruginosa K34-7 producing Verona integron encoded metallo beta-lactamse-2 cultured in MHB medium assessed as reduction in bacterial growth incubated for 24 hrs by microdilution susceptibility test
- Assay type: functional
- CONDITION SET: K34-7, 24 h
Provide the reported MIC of each item.
Write the answer as a number in µg/mL, unit excluded.

Query: Please supply the value of reported MIC for the item NCCNCC(CN)(Cc1cc(C(F)(F)F)cc(C(F)(F)F)c1)Cc1cc(C(F)(F)F)cc(C(F)(F)F)c1
Reply: 32

Query: Please supply the value of reported MIC for the item NCCNCC(CN)(Cc1cc(Br)cc(Br)c1)Cc1cc(Br)cc(Br)c1
Reply: 16

Query: Please supply the value of reported MIC for the item N=C(N)NCCNC(=O)C(CNC(=N)N)(Cc1cc(Br)cc(Br)c1)Cc1cc(Br)cc(Br)c1
Reply: 16

Query: Please supply the value of reported MIC for the item NCCNCC(CN)(Cc1ccccc1Br)Cc1ccccc1Br
Reply: 32

Query: Please supply the value of reported MIC for the item NCCNCC(CN)(Cc1ccc(F)c2ccccc12)Cc1ccc(F)c2ccccc12
Reply: 16

Query: Please supply the value of reported MIC for the item N=C(N)NCCNC(=O)C(CNC(=N)N)(Cc1cc(C(F)(F)F)cc(C(F)(F)F)c1)Cc1cc(C(F)(F)F)cc(C(F)(F)F)c1
Reply: 32

====

Provide the reported MIC of each item.
- Test system: Staphylococcus aureus
- PROTOCOL NOTES: Antibacterial activity against multidrug-resistant Staphylococcus aureus WIS cultured in MHB medium assessed as reduction in bacterial growth incubated for 24 hrs by microdilution susceptibility test
- Assay type: functional
Write the answer as a number in µg/mL, unit excluded.

Query: Please supply the value of reported MIC for the item N#CC(Cc1cc(C(F)(F)F)cc(C(F)(F)F)c1)(Cc1cc(C(F)(F)F)cc(C(F)(F)F)c1)C(=O)NCCN
Reply: 16

Query: Please supply the value of reported MIC for the item NCCNCC(CN)(Cc1cc(C(F)(F)F)cc(C(F)(F)F)c1)Cc1cc(C(F)(F)F)cc(C(F)(F)F)c1
Reply: 8

Query: Please supply the value of reported MIC for the item NCCNCC(CN)(Cc1ccc(F)c2ccccc12)Cc1ccc(F)c2ccccc12
Reply: 4

Query: Please supply the value of reported MIC for the item NCCNCC(CN)(Cc1ccccc1Br)Cc1ccccc1Br
Reply: 8

Query: Please supply the value of reported MIC for the item N=C(N)NCCNC(=O)C(CNC(=N)N)(Cc1cc(Br)cc(Br)c1)Cc1cc(Br)cc(Br)c1
Reply: 2

Query: Please supply the value of reported MIC for the item NCCNC(=O)C(CN)(Cc1ccc(F)c2ccccc12)Cc1ccc(F)c2ccccc12
Reply: 16

Query: Please supply the value of reported MIC for the item NCCNC(=O)C(CN)(Cc1cc(Br)cc(Br)c1)Cc1cc(Br)cc(Br)c1
Reply: 16

Query: Please supply the value of reported MIC for the item NCCNC(=O)C(CN)(Cc1cc(C(F)(F)F)cc(C(F)(F)F)c1)Cc1cc(C(F)(F)F)cc(C(F)(F)F)c1
Reply: 16

Query: Please supply the value of reported MIC for the item N=C(N)NCCNC(=O)C(CNC(=N)N)(Cc1cc(C(F)(F)F)cc(C(F)(F)F)c1)Cc1cc(C(F)(F)F)cc(C(F)(F)F)c1
Reply: 8

Query: Please supply the value of reported MIC for the item N=C(N)NCCNC(=O)C(CNC(=N)N)(Cc1ccc(F)c2ccccc12)Cc1ccc(F)c2ccccc12
Reply: 4

Query: Please supply the value of reported MIC for the item NCCNCC(CN)(Cc1cc(Br)cc(Br)c1)Cc1cc(Br)cc(Br)c1
Reply: 8

These entries and their values trace back to ChEMBL document CHEMBL4311965.
